Test system: A549
TEST SUMMARY: Antiproliferative activity against human A549 cells after 72 hrs by MTT assay
Assay type: functional, cell-based
TEST SETTINGS: A549, 72 h
OUTCOME MEASURE: pIC50
Give bare numbers, as −log10 of the molar value.

Sample answers from the record:
> print(dat)
                                   compound  target.under.test  observed.result
1  C=C(Cl)C(=O)Nc1cc(Nc2nc(C)cc(-c3cn(C)c4ccccc34)n2)c(OC)cc1N(C)CCN(C)C               A549             5.76
2  CC/C=C\C(=O)Nc1cc(Nc2nc(C)cc(-c3cn(C)c4ccc(F)cc34)n2)c(OC)cc1N(C)CCN(C)C               A549             5.04
3  COc1cc(N(C)CCN(C)C)c(NC(=O)/C=C\C(C)C)cc1Nc1ncc(C#N)c(-c2cn(C)c3ccc(F)cc23)n1               A549             6.73
4  CCC/C=C\C(=O)Nc1cc(Nc2nc(C)cc(-c3cn(C)c4ccc(F)cc34)n2)c(OC)cc1N(C)CCN(C)C               A549             4.88
5  C=CC(=O)Nc1cc(Nc2nccc(-c3cn(C)c4ccccc34)n2)c(OC)cc1N(C)CCN(C)C [OSIMERTINIB]               A549             6.21
6  CCC/C=C\C(=O)Nc1cc(Nc2nccc(-c3cn(C)c4ccc(F)cc34)n2)c(OC)cc1N(C)CCN(C)C               A549             5.99
7  CCC/C=C\C(=O)Nc1cc(Nc2ncc(C#N)c(-c3cn(C)c4ccc(F)cc34)n2)c(OC)cc1N(C)CCN(C)C               A549             6.13

Please look at the following compound next.
q: Report pIC50 on A549 for this entry: COc1cc(N(C)CCN(C)C)c(NC(=O)/C=C\C(C)C)cc1Nc1nccc(-c2cn(C)c3ccc(F)cc23)n1
a: 5.21

The measured values listed here are drawn from ChEMBL document CHEMBL4411272.
